# System: MS2 coat protein
# MEASUREMENT_DESCRIPTION: apparent KD of MS2 coat protein; designed switch direction (-1 OFF switch, 1 ON switch): -1; higher = weaker reporter binding
# MEASUREMENT_SETUP: input ligand: none
Field: apparent KD of MS2 coat protein. Provide a value for each of the sequences that follow.
Give bare numbers, in nM.

Observe how each entry below is paired with its result.
CONSTRUCT_SEQUENCE	apparent KD of MS2 coat protein [nM]
GCACGGAGUGUAGGAUAUCUGUGCGAUUAGCUCAGAGAAGGGCACAUGAGGAUCACCCAUGUGUAUAAACACAAUAAUCCGUGC [Eli exng1 - 069] (Eterna round: R96, puzzle: Exclusion NG 1)	14.1
CAACGAAGUCGAGGAUAUGCCCACUCCGCAGCGGCAGAAGGCGACAUGAGGAUCACCCAUGUAACGGCUAACGGGAUGGGAAGG [Eternabot solution 7] (Eterna round: R96, puzzle: Exclusion NG 1)	25.9

Switching to the query record.
Input: Fill in the blank: the reported apparent KD of MS2 coat protein of UAAAUGCUGCGAGGAUAUACAUGAGGAUCACCCAUGUGGAUGUCUGAGGCUUUGCCUCAGACGAUGUAGAAGGCGCAGUAAAAU [Mat - Exclusion NG 2 - Mod of JL - D52] (Eterna round: R96, puzzle: Exclusion NG 2) is ____.
Output: 22.5
